Below is a list of entries, each paired with its recorded Dmax value.
- system: SMARCA4 (Homo sapiens, UniProt P51532)
- Construct: SMARCA4-HiBiT knock-in Hela monoclonal cell (CS3023226); host or cells: HeLa monoclonal cells with heterozygous HiBiT knock-in at the endogenous SMARCA4 locus
- Sequence (P51532 whole entry): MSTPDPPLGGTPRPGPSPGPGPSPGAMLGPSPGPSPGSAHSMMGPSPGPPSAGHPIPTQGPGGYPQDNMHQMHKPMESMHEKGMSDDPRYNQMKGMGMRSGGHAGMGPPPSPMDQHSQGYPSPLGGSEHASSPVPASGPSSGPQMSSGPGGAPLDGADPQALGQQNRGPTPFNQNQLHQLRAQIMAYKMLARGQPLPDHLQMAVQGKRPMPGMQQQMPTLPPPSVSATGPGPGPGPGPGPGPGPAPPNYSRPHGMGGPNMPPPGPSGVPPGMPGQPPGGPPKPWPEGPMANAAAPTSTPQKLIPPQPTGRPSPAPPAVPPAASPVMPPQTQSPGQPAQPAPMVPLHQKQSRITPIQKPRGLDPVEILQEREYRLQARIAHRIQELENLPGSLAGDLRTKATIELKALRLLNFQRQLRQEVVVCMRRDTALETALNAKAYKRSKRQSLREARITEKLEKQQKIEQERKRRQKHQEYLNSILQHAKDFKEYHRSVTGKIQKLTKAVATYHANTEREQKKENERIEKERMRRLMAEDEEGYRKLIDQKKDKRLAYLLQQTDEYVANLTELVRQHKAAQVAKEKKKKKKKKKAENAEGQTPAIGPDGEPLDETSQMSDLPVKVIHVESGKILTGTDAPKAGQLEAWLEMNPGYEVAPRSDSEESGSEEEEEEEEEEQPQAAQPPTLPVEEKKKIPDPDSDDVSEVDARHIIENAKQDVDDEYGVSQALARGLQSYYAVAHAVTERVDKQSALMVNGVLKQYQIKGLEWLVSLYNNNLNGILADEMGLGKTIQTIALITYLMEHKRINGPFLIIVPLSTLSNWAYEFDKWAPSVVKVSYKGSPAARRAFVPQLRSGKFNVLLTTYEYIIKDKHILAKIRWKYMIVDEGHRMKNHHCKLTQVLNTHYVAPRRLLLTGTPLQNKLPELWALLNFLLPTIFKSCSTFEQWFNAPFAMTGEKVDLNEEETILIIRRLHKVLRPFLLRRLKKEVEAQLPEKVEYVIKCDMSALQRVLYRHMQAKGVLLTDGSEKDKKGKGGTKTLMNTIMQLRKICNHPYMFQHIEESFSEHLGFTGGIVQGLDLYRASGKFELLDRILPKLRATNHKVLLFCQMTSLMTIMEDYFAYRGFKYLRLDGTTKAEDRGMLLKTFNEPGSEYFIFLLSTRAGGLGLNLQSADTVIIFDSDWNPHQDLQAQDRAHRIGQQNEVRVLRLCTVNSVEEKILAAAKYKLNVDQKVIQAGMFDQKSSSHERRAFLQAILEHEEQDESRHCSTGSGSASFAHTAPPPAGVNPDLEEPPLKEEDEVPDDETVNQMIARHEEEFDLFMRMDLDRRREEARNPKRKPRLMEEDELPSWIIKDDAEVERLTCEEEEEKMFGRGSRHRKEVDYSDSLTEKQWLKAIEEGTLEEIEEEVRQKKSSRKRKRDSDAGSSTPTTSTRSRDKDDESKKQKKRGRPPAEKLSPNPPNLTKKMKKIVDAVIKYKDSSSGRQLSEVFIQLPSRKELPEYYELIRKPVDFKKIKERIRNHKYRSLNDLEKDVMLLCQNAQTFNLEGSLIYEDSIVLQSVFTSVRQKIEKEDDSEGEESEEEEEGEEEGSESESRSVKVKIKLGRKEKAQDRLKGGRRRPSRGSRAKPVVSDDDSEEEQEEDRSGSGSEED
- procedure details: SMARCA4 HiBiT degradation assay in HeLa cells
- Type: cell-based
- conditions: 18 hours, highest concentration 10 μM

Solved cases (4 shown):
compound | Dmax
O=C1CCC(N2Cc3ccc(N4CCN(Cc5ccc(O[C@@H]6C[C@@H]7CNc8nnc(-c9cc(F)cc(F)c9O)cc8N7C6)c(Cl)c5)CC4)cc3C2=O)C(=O)N1 (some centres unmarked) | > 75%
CC[C@]12CNc3nnc(-c4cccc(C)c4O)cc3N1C[C@H](Oc1nc(C)c(CN3CCC(c4ccc5c(c4)C(=O)N([C@H]4CCC(=O)NC4=O)C5)CC3)c(C)n1)C2 | < 50%
CC[C@]12CNc3nnc(-c4cccc(F)c4O)cc3N1C[C@H](Oc1cnc(CN3CCN(c4ccc5c(c4)CN([C@H]4CCC(=O)NC4=O)C5=O)CC3)c(C(F)(F)F)c1)C2 | 50 to 75%
CC[C@]12CNc3nnc(-c4cccc(F)c4O)cc3N1C[C@H](Oc1cnc(CN3CCC(c4ccc5c(c4)C(=O)N([C@H]4CCC(=O)NC4=O)C5)CC3)c(C)c1)C2 | 50 to 75%

Next compound, please.
For `CC[C@@]12CNc3nnc(-c4cccc(F)c4O)cc3N1C[C@H](Oc1nc(C)c(CN3CCC(c4ccc5c(c4)C(=O)N([C@H]4CCC(=O)NC4=O)C5)CC3)c(C)n1)C2` , write its Dmax.
< 50%

Where do these numbers come from? They come from patent US20240165244A1.
